# Tested on: HCT-116 colon
# test_description: NCI-60 one-dose screen, 48 h (100 = growth as untreated, 0 = no growth, -100 = all killed)
# test_settings: 10 µM unless noted
Compounds without any hit were thinned out: in the full panel of roughly 83,000, 20% have a hit.
Reported growth is given for each of the following compounds.
Unit % implied. Number only.

Example cases with answers are listed next.
Which growth value belongs to Cc1cc(-c2ccccc2)c(C)n1Cc1ccc(Cl)cc1 ?
15

Next up: Clc1nc2ccccc2nc1CI
23

Next up: NC(N)=NC(N)=Nc1ccccc1-c1ccccc1
102

Further cases:
Which growth value belongs to COc1ccc(/C=C2\C(=O)N(C(=O)c3csc(NC(C)=O)n3)N=C2C)cc1 ?
98.2

Source of measurements: PubChem BioAssay (NCI)
